Give measured antagonist pA2 (Schild, agonist NDP-MSH) for each item. Keep answers brief.
TGT: mouse melanocortin-4 receptor (mouse, UniProt P56450 1-332)
Sequence (P56450 whole entry): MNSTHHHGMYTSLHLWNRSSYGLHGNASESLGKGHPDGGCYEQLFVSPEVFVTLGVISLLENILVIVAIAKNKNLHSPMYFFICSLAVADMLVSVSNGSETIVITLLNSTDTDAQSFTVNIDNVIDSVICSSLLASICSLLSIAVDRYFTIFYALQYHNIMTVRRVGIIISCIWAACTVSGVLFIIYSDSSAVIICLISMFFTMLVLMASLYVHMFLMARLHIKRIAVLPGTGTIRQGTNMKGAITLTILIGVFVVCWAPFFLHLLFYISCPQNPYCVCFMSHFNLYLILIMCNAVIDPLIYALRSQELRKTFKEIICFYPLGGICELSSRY
EXPERIMENTAL_DETAILS: cell-based or functional assay
Square brackets hold non-standard residues; d marks the D form. hPhe = N[C@@H](CCc1ccccc1)C(=O)O; Nle = CCCC[C@H](N)C(=O)O
Form: value (number only, do not type unit).

Respond only with antagonist pA2 (Schild, agonist NDP-MSH) recorded for cyclo(PRF[hPhe]NS[Nle][dP]) (SMILES CCCC[C@@H]1NC(=O)[C@H](CO)NC(=O)[C@H](CC(N)=O)NC(=O)[C@H](CCc2ccccc2)NC(=O)[C@H](Cc2ccccc2)NC(=O)[C@H](CCCNC(=N)N)NC(=O)[C@@H]2CCCN2C(=O)[C@H]2CCCN2C1=O) [c[Pro-Arg-Phe-hPhe-Asn-Ser-Nle-DPro]]
9.2

Please report antagonist pA2 (Schild, agonist NDP-MSH) for the following binder: cyclo(PRF[hPhe]RAF[dP]) (SMILES C[C@@H]1NC(=O)[C@H](CCCNC(=N)N)NC(=O)[C@H](CCc2ccccc2)NC(=O)[C@H](Cc2ccccc2)NC(=O)[C@H](CCCNC(=N)N)NC(=O)[C@@H]2CCCN2C(=O)[C@H]2CCCN2C(=O)[C@H](Cc2ccccc2)NC1=O) [c[Pro-Arg-Phe-hPhe-Arg-Ala-Phe-DPro]]
8.9

Read the entry cyclo(PRFFRSF[dP]) (SMILES N=C(N)NCCC[C@@H]1NC(=O)[C@H](Cc2ccccc2)NC(=O)[C@H](Cc2ccccc2)NC(=O)[C@H](CCCNC(=N)N)NC(=O)[C@@H]2CCCN2C(=O)[C@H]2CCCN2C(=O)[C@H](Cc2ccccc2)NC(=O)[C@H](CO)NC1=O) [c[Pro-Arg-Phe-Phe-Arg-Ser-Phe-DPro]] and write its reported antagonist pA2 (Schild, agonist NDP-MSH).
9

Specify measured antagonist pA2 (Schild, agonist NDP-MSH) for cyclo(PRFFRAF[dP]) [c[Pro-Arg-Phe-Phe-Arg-Ala-Phe-DPro]] .
8.7
